- TEST_TARGET: DDR2 (Homo sapiens, UniProt Q16832)
- Construct: purchased Life Technologies
- PROTOCOL_DETAILS: LanthaScreen Europium Kinase Binding assay, DDR2
- EXPERIMENTAL_CONTEXT: 5 nM DDR2, 10 nM Kinase Tracer 178, 1 h at rt; Ki from IC50 by Cheng-Prusoff; read-out: Ki DDR2
OBSERVED_PROPERTY: Ki

{"columns": ["MOLECULE", "RESULT"],
 "data": [
  ["Cc1ccc(C(=O)Nc2cncc(C(F)(F)F)c2)cc1[C@@H]1CCN(c2cncc(C#N)c2)C1", "< 5 nM"],
  ["Cc1ccc(C(=O)c2cncc(C(F)(F)F)c2)cc1[C@@H]1CCN(c2cnc3ccc(CO)cn23)C1", "< 5 nM"],
  ["CNC(=O)c1cc(N2CCC(c3cc(C(=O)Nc4cncc(C(F)(F)F)c4)ccc3OC)C2)ccn1 (stereo not shown)", "5 to 25 nM"],
  ["Cc1ccc(C(=O)Nc2cncc(C(F)(F)F)c2)cc1[C@@H]1CCN(c2ncnc3cc(C(=O)N4CCN(C)CC4)sc23)C1", "5 to 25 nM"],
  ["Cc1ccc(C(=O)Nc2cncc(C(F)(F)F)c2)cc1[C@@H]1CCN(c2cnc3[nH]ncc3c2)C1", "< 5 nM"],
  ["Cc1ccc(C(=O)Nc2cncc(C(F)(F)F)c2)cc1[C@@H]1CCN(c2cncc(C(=O)NCCN(C)C)c2)C1", "5 to 25 nM"],
  ["CNC(=O)c1cc2ncnc(N3CC[C@@H](c4cc(C(=O)Nc5cncc(C(F)(F)F)c5)ccc4C)C3)c2s1", "< 5 nM"]
]}

----------
- TEST_TARGET: DDR1 (Homo sapiens)
- Construct: purchased Carna Biosciences
- Sequence (Q08345 19-913): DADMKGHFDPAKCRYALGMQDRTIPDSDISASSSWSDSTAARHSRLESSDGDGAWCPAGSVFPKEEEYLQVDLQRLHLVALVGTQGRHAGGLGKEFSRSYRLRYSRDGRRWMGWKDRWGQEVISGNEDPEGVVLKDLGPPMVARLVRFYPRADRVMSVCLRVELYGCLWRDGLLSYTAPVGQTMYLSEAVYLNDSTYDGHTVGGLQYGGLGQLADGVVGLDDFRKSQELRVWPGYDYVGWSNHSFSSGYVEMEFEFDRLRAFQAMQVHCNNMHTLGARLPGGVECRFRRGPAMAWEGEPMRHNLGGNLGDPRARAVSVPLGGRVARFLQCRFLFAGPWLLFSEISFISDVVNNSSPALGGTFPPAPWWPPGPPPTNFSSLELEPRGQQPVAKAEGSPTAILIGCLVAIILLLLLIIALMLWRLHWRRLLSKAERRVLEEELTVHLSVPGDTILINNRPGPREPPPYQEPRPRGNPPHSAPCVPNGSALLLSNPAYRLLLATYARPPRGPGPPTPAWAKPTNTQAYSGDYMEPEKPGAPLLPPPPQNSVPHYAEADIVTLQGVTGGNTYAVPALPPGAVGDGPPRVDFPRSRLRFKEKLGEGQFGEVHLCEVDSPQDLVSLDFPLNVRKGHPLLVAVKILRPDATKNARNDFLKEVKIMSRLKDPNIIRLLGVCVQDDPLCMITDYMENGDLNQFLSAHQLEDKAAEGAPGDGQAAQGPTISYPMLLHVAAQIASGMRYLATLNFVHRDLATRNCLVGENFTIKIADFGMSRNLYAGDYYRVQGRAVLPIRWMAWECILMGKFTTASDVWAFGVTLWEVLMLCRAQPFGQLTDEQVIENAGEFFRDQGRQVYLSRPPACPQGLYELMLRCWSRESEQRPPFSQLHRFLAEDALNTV
- PROTOCOL_DETAILS: LanthaScreen Europium Kinase Binding assay, DDR1
- EXPERIMENTAL_CONTEXT: 5 nM DDR1, 20 nM Kinase Tracer 178, 1 h at rt; Ki from IC50 by Cheng-Prusoff; read-out: Ki DDR1

{"columns": ["MOLECULE", "Ki"],
 "data": [
  ["Cc1ccc(C(=O)Nc2cncc(C(F)(F)F)c2)cc1[C@@H]1CCN(c2cnc3ccc(CN4CCOCC4)cn23)C1", "< 5 nM"],
  ["CC(=O)Nc1cc(N2CC[C@@H](c3cc(C(=O)Nc4cncc(C(F)(F)F)c4)ccc3C)C2)ccn1", "< 5 nM"],
  ["Cc1ccc(C(=O)Nc2cc(C(F)(F)F)ncn2)cc1[C@@H]1CCN(c2cncc(C#N)c2)C1", "< 5 nM"],
  ["Cc1ccc(C(=O)Nc2cncc(C(F)(F)F)c2)cc1[C@@H]1CCN(c2ncnc3[nH]ncc23)C1", "< 5 nM"],
  ["Cc1ccc(C(=O)Nc2cc(C3CC3)nn2C)cc1[C@@H]1CCN(c2cncnc2)C1", "5 to 25 nM"],
  ["Cc1ccc(C(=O)Nc2cncc(C(F)(F)F)c2)cc1[C@@H]1CCN(c2cnn(C)c2C(N)=O)C1", "< 5 nM"],
  ["Cc1ccc(C(=O)c2cncc(C(F)(F)F)c2)cc1[C@@H]1CCN(c2cnc3ccc(CO)cn23)C1", "< 5 nM"],
  ["Cc1ccn2ncc(N3CC[C@@H](c4cc(C(=O)Nc5cncc(C(F)(F)F)c5)ccc4C)C3)c2n1", "< 5 nM"],
  ["NC(=O)c1cc(N2CCC(c3cc(C(=O)Nc4cncc(C(F)(F)F)c4)ccc3OC(F)F)C2)ccn1 (single isomer, unassigned) [Example 118]", "< 5 nM"],
  ["Cc1ccc(C(=O)Nc2cc(OC(F)F)ccn2)cc1[C@@H]1CCN(c2cncc(C#N)n2)C1", "< 5 nM"],
  ["CCc1cc(NC(=O)c2ccc(C)c([C@@H]3CCN(c4cncnc4)C3)c2)no1", "< 5 nM"],
  ["COCCOc1cncc(N2CC[C@@H](c3cc(C(=O)Nc4cncc(C(F)(F)F)c4)ccc3C)C2)c1", "< 5 nM"],
  ["Cc1ccc(C(=O)Nc2cncc(C(F)(F)F)c2)cc1[C@@H]1CCN(c2ncnc3cc(Br)sc23)C1", "5 to 25 nM"],
  ["O=C(Nc1cncc(C(F)(F)F)c1)c1ccc(C(F)F)c(C2CCN(c3cncnc3)C2)c1 (stereo not drawn) [Example 120]", "5 to 25 nM"],
  ["Cc1ccc(C(=O)Nc2cncc(C(F)(F)F)c2)cc1[C@@H]1CCN(c2cnc3ccc(N4CCOCC4)nn23)C1", "< 5 nM"]
]}

----------
- TEST_TARGET: DDR2 (Homo sapiens, UniProt Q16832)
- Construct: purchased Life Technologies
- Sequence (Q16832 22-855): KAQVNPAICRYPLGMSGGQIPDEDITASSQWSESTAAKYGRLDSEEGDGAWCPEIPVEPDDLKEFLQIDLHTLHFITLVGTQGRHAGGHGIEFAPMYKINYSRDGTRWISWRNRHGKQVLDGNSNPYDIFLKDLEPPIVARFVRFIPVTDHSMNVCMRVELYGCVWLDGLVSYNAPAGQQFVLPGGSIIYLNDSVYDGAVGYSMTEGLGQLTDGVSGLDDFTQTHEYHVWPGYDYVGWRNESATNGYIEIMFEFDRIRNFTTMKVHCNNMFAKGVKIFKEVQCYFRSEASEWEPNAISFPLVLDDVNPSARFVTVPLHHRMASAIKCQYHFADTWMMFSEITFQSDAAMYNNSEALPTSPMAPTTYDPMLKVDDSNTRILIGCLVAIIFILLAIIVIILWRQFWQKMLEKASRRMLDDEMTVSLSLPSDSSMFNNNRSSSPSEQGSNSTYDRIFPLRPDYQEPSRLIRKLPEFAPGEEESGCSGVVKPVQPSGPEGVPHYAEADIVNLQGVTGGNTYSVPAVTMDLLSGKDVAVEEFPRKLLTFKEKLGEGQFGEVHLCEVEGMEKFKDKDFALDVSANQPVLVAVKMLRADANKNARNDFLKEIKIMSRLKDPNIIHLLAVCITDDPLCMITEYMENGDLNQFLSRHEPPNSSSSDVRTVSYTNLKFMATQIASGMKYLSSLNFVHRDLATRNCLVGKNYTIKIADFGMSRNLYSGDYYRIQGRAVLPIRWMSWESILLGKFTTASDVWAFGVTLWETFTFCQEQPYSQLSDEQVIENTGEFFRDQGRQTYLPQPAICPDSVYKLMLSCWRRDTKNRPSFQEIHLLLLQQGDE
- PROTOCOL_DETAILS: LanthaScreen Europium Kinase Binding assay, DDR2
- EXPERIMENTAL_CONTEXT: 5 nM DDR2, 10 nM Kinase Tracer 178, 1 h at rt; Ki from IC50 by Cheng-Prusoff; read-out: Ki DDR2

{"columns": ["COMPOUND", "Ki"],
 "data": [
  ["O=C(Nc1cncc(C(F)(F)F)c1)c1ccc(OC(F)F)c(C2CCN(c3cncnc3)C2)c1 (single isomer, unassigned) [Example 116]", "< 5 nM"],
  ["COCCOc1cncc(N2CC[C@@H](c3cc(C(=O)Nc4cncc(C(F)(F)F)c4)ccc3C)C2)c1", "5 to 25 nM"],
  ["Cc1ccc(C(=O)Nc2cc(OC(F)(F)F)ccn2)cc1[C@@H]1CCN(c2cncnc2)C1", "< 5 nM"],
  ["Cc1ccc(C(=O)Nc2cncc(C(F)(F)F)c2)cc1N1CC(Oc2cncc(C(N)=O)c2)C1", "5 to 25 nM"],
  ["COCC(=O)Nc1ccc(OC2CN(c3cc(C(=O)Nc4cncc(C(F)(F)F)c4)ccc3C)C2)cn1", "25 to 100 nM"],
  ["Cc1ccc(C(=O)Nc2cc(OC(F)F)ccn2)cc1[C@@H]1CCN(c2cncc(C#N)n2)C1", "5 to 25 nM"],
  ["Cc1ccc(C(=O)Nc2cncc(C(F)(F)F)c2)cc1[C@@H]1CCN(c2cc(C(N)=O)ncn2)C1", "< 5 nM"],
  ["Cc1ccc(C(=O)Nc2cncc(C(F)(F)F)c2)cc1N1CC(Oc2ccc(N)nc2)C1", "25 to 100 nM"],
  ["Cc1ccc(C(=O)Nc2cc(C(C)(C)C)n(C)n2)cc1[C@@H]1CCN(c2ccnc(C(N)=O)c2)C1", "5 to 25 nM"],
  ["CC(=O)Nc1cncc(N2CC[C@@H](c3cc(C(=O)Nc4cncc(C(F)(F)F)c4)ccc3C)C2)c1", "< 5 nM"],
  ["Cc1ccc(C(=O)Nc2cc(C3CC3)nn2C)cc1[C@@H]1CCN(c2cncc(-c3cnn(C)c3)c2)C1", "5 to 25 nM"],
  ["Cc1ccc(C(=O)Nc2cncc(C(F)(F)F)c2)cc1[C@@H]1CCN(c2ncnc3cc(Br)sc23)C1", "5 to 25 nM"],
  ["Cc1ccc(C(=O)Nc2cncc(C(F)(F)F)c2)cc1[C@@H]1CCN(c2cnn(C)c2)C1", "5 to 25 nM"],
  ["Cc1ccc(C(=O)Nc2cncc(C(F)(F)F)c2)cc1[C@@H]1CCN(c2cnc3[nH]cc(C(=O)NC4COC4)c3c2)C1", "5 to 25 nM"],
  ["O=C(Nc1cncc(C(F)(F)F)c1)c1ccc(C(F)F)c(C2CCN(c3cncnc3)C2)c1 (stereo not drawn) [Example 120]", "25 to 100 nM"]
]}
